target: human CD33 T30A (human, UniProt P20138 18-364); assay: alanine scan, flow cytometry;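 also: HEK293-T cells transiently expressing single-residue alanine mutants of CD33 (alanine swapped to serine), antibody binding read by fluorescence in duplicate, background-subtracted, expressed relative to wild-type CD33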
Sequence (P20138 18-364 T30A limits assumed): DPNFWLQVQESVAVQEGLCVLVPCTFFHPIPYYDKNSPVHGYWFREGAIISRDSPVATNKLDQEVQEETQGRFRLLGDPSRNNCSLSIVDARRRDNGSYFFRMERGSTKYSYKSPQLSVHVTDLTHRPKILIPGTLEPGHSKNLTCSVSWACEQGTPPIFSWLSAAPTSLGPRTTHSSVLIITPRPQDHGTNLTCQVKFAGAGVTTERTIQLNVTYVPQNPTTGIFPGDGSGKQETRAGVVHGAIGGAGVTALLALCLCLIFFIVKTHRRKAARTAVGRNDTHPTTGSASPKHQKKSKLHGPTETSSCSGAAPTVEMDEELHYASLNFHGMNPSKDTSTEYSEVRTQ

Binder: Refmab #1 (antibody, V domains shown, Full-length format is human IgG1 (Absolute Antibody Ab00283-10.0); The alanine scan used IgG or Fab; also called hP67.6) VH: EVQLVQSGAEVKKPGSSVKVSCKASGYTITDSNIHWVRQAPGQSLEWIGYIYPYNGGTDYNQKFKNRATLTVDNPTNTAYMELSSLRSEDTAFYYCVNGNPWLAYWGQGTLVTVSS VL: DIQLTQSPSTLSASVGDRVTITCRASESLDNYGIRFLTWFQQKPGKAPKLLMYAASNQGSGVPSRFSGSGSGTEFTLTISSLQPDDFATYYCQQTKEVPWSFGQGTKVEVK
Mean % WT Binding: 89.3 % WT
//
Binder: Refmab #4 (antibody, V domains shown, Full-length format is human IgG1 Fc silent (PG-LALA); The alanine scan used IgG or Fab) VH: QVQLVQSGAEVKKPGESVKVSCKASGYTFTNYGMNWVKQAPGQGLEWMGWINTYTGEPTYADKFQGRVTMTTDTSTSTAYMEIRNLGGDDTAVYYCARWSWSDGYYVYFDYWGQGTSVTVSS VL: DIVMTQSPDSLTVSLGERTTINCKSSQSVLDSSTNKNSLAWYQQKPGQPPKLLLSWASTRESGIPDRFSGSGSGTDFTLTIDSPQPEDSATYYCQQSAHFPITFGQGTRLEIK
Mean % WT Binding: 104 % WT
//
Binder: Refmab #2 (antibody, V domains shown, Full-length format is human IgG1 Fc silent (PG-LALA); The alanine scan used IgG or Fab) VH: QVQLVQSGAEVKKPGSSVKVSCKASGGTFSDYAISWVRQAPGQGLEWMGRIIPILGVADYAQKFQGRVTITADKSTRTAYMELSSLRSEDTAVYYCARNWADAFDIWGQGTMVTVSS VL: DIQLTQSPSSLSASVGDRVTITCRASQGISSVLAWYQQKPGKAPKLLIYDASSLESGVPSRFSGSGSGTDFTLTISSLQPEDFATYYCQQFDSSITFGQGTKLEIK
Mean % WT Binding: 92.1 % WT
//
Binder: Refmab #3 (antibody, V domains shown, Full-length format is human IgG1 Fc silent (PG-LALA); The alanine scan used IgG or Fab) VH: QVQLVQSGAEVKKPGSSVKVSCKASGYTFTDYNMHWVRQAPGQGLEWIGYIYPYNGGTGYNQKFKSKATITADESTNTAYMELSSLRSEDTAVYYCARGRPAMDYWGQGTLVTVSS VL: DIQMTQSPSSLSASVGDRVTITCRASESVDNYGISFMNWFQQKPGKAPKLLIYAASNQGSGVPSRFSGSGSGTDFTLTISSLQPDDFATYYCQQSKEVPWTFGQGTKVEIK
Mean % WT Binding: 104 % WT

Data origin, for the record: patent US20260242735A1
